- Target Or System: Broad substrate specificity ATP-binding cassette transporter ABCG2 (Homo sapiens)
- Test Method Notes: Inhibition of GFP-tagged human BCRP expressed in MDCK2 cells up to 10 uM pre-incubated for 30 mins followed by Hoechst 33342 addition and further incubated for 120 mins by Hoechst 33342 accumulation assay
- Format: cell-based
- Particulars: mdck-ii, 2 h
Measured Quantity: inhibition (INH)

CCOc1ccc(-n2nnc(-c3ccccc3NC(=O)c3ccc([N+](=O)[O-])cc3)n2)cc1; Not Active
O=C(Nc1ccccc1-c1nnn(-c2ccc(C(F)(F)F)cc2)n1)c1ccc([N+](=O)[O-])cc1; Not Active
CCOc1ccc(-n2nnc(-c3ccccc3NC(=O)c3ccc(C(F)(F)F)cc3)n2)cc1; Not Active
CCCc1ccc(-n2nnc(-c3ccccc3NC(=O)c3ccc(C(F)(F)F)cc3)n2)cc1; Not Active

Next up:
Measured inhibition (INH) of O=C(Nc1ccccc1-c1nnn(-c2ccc(C(F)(F)F)cc2)n1)c1ccc(C(F)(F)F)cc1 : Not Active

====

Consider the following compounds and their measured GI50 at 72 h readings.
- Test Method Notes: Intrinsic cytotoxicity against wild type MDCK2 cells assessed as reduction in cell viability after 72 hrs by MTT assay
- Format: cell-based, Canis lupus familiaris, MDCK-II
- Particulars: dog
Give just the number in µM; leave the unit off.

CCCc1ccc(C(=O)Nc2ccccc2-c2nnn(-c3ccc(OC)cc3)n2)cc1; 77.6
COc1ccc(C(=O)Nc2ccccc2-c2nnn(-c3ccc(C(F)(F)F)cc3)n2)cc1; 34.4

Next up:
Measured GI50 at 72 h of CCCc1ccc(-n2nnc(-c3ccccc3NC(=O)c3ccc(OC)cc3)n2)cc1 : 63.2

====

- Target Or System: ABCB1 (P-gp) (Homo sapiens)
- Sequence (P08183 whole entry): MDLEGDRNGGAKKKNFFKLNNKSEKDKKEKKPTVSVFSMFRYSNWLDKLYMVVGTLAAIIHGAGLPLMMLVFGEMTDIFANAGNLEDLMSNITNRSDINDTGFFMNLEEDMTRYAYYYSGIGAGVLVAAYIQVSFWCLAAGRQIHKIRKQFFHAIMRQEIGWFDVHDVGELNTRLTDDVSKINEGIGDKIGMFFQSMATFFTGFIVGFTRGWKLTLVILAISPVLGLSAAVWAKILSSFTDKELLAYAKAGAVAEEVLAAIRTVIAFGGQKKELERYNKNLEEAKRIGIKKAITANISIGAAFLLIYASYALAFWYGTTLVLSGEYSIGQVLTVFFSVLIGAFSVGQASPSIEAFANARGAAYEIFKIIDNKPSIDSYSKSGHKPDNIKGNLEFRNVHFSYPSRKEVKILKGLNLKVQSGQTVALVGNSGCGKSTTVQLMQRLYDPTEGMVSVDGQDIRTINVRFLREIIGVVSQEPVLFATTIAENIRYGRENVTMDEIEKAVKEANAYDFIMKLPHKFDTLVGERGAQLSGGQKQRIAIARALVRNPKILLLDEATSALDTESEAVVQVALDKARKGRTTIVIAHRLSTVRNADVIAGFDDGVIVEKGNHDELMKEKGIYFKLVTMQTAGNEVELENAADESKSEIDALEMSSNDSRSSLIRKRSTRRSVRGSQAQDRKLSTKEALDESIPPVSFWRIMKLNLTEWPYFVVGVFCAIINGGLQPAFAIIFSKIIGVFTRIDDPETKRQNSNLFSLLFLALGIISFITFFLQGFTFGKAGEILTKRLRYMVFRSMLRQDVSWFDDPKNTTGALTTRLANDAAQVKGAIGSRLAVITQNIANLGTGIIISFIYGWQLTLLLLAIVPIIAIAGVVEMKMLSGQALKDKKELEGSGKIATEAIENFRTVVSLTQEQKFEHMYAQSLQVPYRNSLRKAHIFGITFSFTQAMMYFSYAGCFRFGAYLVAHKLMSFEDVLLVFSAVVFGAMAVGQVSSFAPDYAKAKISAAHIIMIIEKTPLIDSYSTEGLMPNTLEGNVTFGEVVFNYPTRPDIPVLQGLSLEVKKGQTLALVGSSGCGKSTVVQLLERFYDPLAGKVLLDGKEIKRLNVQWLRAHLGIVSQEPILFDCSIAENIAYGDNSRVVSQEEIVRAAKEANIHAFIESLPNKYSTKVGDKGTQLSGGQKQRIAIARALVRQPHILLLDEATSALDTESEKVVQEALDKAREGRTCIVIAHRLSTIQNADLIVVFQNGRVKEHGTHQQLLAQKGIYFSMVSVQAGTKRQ
- Test Method Notes: Inhibition of ABCB1 in human A2780adr cells at 10 uM pre-incubated for 30 mins followed by calcein AM addition and further incubated for 60 mins by calcein AM assay
- Type: cell-based, A2780 ADR
- Particulars: probe calcein AM
Measured Quantity: inhibition at 1 h, 10 µM

Answered examples (2):
CCCc1ccc(C(=O)Nc2ccccc2-c2nnn(-c3ccc(OC)cc3)n2)cc1; < 25%
O=C(Nc1ccccc1-c1nnn(-c2ccc(C(F)(F)F)cc2)n1)c1ccc(C(F)(F)F)cc1; < 25%

Next up:
Measured inhibition at 1 h, 10 µM of CCOc1ccc(-n2nnc(-c3ccccc3NC(=O)c3ccc(OC)c(OC)c3)n2)cc1 : ≥ 25%

====

- Target Or System: BCRP (ABCG2) (Homo sapiens)
- Sequence (Q9UNQ0 whole entry): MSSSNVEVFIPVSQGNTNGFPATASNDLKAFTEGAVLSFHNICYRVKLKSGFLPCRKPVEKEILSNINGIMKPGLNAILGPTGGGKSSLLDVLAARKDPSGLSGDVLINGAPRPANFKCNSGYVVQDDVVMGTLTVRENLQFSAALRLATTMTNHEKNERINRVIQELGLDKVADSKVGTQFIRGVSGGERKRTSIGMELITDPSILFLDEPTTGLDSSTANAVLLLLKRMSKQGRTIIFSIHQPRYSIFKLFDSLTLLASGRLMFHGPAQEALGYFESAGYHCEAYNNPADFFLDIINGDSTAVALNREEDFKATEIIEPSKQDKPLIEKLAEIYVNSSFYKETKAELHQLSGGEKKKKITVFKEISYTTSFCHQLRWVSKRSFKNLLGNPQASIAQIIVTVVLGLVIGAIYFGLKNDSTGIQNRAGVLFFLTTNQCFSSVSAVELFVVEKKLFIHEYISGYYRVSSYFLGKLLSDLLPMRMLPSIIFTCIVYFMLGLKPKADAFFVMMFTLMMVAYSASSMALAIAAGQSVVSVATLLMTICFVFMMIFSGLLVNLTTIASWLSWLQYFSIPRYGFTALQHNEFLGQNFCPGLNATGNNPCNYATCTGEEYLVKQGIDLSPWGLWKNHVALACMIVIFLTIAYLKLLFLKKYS
- Test Method Notes: Inhibition of GFP-tagged human BCRP expressed in MDCK2 cells pre-incubated for 30 mins followed by Hoechst 33342 addition and further incubated for 120 mins by Hoechst 33342 accumulation assay relative to XR9577
- Assay type: cell-based, MDCK-II
- Particulars: MDCK2 cells expressing GFP-tagged human BCRP, probe Hoechst 33342, read-out: Imax
Measured Quantity: Emax at 2 h (%)

COc1ccccc1-n1nnc(-c2ccccc2NC(=O)c2ccc([N+](=O)[O-])cc2)n1; 102
CCCc1ccc(-n2nnc(-c3ccccc3NC(=O)c3ccc(OC)cc3)n2)cc1; 88
COc1ccc(-n2nnc(-c3ccccc3NC(=O)c3ccc(OC)c(OC)c3)n2)cc1; 107
COc1cccc(-n2nnc(-c3ccccc3NC(=O)c3ccc(C(F)(F)F)cc3)n2)c1; 100
COc1ccccc1-n1nnc(-c2ccccc2NC(=O)c2ccc(C(F)(F)F)cc2)n1; 100
COc1ccc(C(=O)Nc2ccccc2-c2nnn(-c3ccc(C(F)(F)F)cc3)n2)cc1; 102
COc1ccc(-n2nnc(-c3ccccc3NC(=O)c3ccc(C(F)(F)F)cc3)n2)cc1; 93

Attribution: ChEMBL document CHEMBL3425464
